- Tested on: Tetranychus urticae
- methodDescription: Miticidal activity against Tetranychus urticae (two-spotted spider mite) in kidney beans assessed as mortality under greenhouse at 100 ppm at 25 +/- 2 degC measured after 48 hr of spray
- Format: functional
Assign mortality at 100 ppm to each entry below.
Quick note: give the figure in %, leave out the unit.

Q. Would you kindly share the measured mortality at 100 ppm for CCCCCCCCC1OC(OC)C=C(CN2CCCCC2)C1=O (configuration not stated) ?
A. 50

Q. Would you kindly share the measured mortality at 100 ppm for CCCCCCC1OC(OCc2ccccc2)C=C(CN2CCCCC2)C1=O (configuration not stated) ?
A. 40

Q. Would you kindly share the measured mortality at 100 ppm for CCCCCCC1OC(OC)C=C(CN2CCCCC2)C1=O (configuration not stated) ?
A. 77

Q. Would you kindly share the measured mortality at 100 ppm for CCCCCCOC1C=C(CN2CCCCC2)C(=O)C(CCCCCC)O1 (configuration not stated) ?
A. 70

Q. Would you kindly share the measured mortality at 100 ppm for CCCCCCC1OC(OCCCC)C=C(CN2CCCCC2)C1=O (configuration not stated) ?
A. 75

Q. Would you kindly share the measured mortality at 100 ppm for CCCCCCC1OC(OC(C)C)C=C(CN2CCCCC2)C1=O (configuration not stated) ?
A. 100

Q. Would you kindly share the measured mortality at 100 ppm for COC1C=C(CN2CCCCC2)C(=O)C(C2CCCCC2)O1 (configuration not stated) ?
A. 68

Q. Would you kindly share the measured mortality at 100 ppm for CCCCCCC1OC(Oc2ccccc2)C=C(CN2CCCCC2)C1=O (configuration not stated) ?
A. 20

Q. Would you kindly share the measured mortality at 100 ppm for CCCCCCC1OC(OC(C)(C)C)C=C(CN2CCCCC2)C1=O (configuration not stated) ?
A. 75

Q. Would you kindly share the measured mortality at 100 ppm for CCCCCCC1OC(OC)C=C(CN2CCC(C)CC2)C1=O (configuration not stated) ?
A. 70

Q. Would you kindly share the measured mortality at 100 ppm for COC1C=C(CN2CCC(C)CC2)C(=O)C(C2CCCCC2)O1 (configuration not stated) ?
A. 60

Q. Would you kindly share the measured mortality at 100 ppm for CCCCCCC1OC(OCC)C=C(CN2CCCCC2)C1=O (configuration not stated) ?
A. 70

----------
- Tested on: Tetranychus urticae
- methodDescription: Miticidal activity against Tetranychus urticae (two-spotted spider mite) in kidney beans assessed as mortality under greenhouse at 100 ppm at 25 +/- 2 degC measured after 48 hr of spray
- Type: functional
Param threshold (80%) applies to mortality at 100 ppm; output T when value >= threshold, F when value < threshold.

Q. Please tell me: is the compound COC1C=C(CN2CCCC(C)C2)C(=O)C(C2CCCCC2)O1 (stereo not drawn) at or over 80% in terms of mortality at 100 ppm?
A. F

Q. Please tell me: is the compound CCCCCCC1OC(OCC(C)C)C=C(CN2CCCCC2)C1=O (stereo not drawn) at or over 80% in terms of mortality at 100 ppm?
A. T

Q. Please tell me: is the compound CCCCCCC1OC(OC)C=C(CN2CCCC(C)C2)C1=O (stereo not drawn) at or over 80% in terms of mortality at 100 ppm?
A. F

Q. Please tell me: is the compound CCCCCCCCCCC1OC(OC)C=C(CN2CCCCC2)C1=O (stereo not drawn) at or over 80% in terms of mortality at 100 ppm?
A. F

Q. Please tell me: is the compound CCCCC1OC(OC)C=C(CN2CCCCC2)C1=O (stereo not drawn) at or over 80% in terms of mortality at 100 ppm?
A. F

Q. Please tell me: is the compound CCCCCCC1OC(OCCC)C=C(CN2CCCCC2)C1=O (stereo not drawn) at or over 80% in terms of mortality at 100 ppm?
A. T

Q. Please tell me: is the compound CCCCCC1OC(OC)C=C(CN2CCCCC2)C1=O (stereo not drawn) at or over 80% in terms of mortality at 100 ppm?
A. F

----------
- Test system: Tetranychus urticae
- methodDescription: Miticidal activity against Tetranychus urticae (two-spotted spider mite) in kidney beans assessed as mortality under greenhouse at 600 ppm at 25 +/- 2 degC measured after 48 hr of spray
- Assay type: functional
Assign mortality at 600 ppm to each entry below.
Quick note: give the figure in %, leave out the unit.

Q. Would you kindly share the measured mortality at 600 ppm for COC1C=C(CN2CCOCC2)C(=O)C(C2CCCCC2)O1 (configuration not stated) ?
A. 90

Q. Would you kindly share the measured mortality at 600 ppm for CCCCCCC1OC(OC)C=C(CN2CCCC2)C1=O (configuration not stated) ?
A. 70

Q. Would you kindly share the measured mortality at 600 ppm for CCCCCCC1OC(OC)C=C(CN2CCC(C)CC2)C1=O (configuration not stated) ?
A. 100

Q. Would you kindly share the measured mortality at 600 ppm for CCCCCC1OC(OC)C=C(CN2CCCCC2)C1=O (configuration not stated) ?
A. 100

Q. Would you kindly share the measured mortality at 600 ppm for CCCCCCC1OC(OC)C=C(CN2CCCCC2)C1=O (configuration not stated) ?
A. 100

Q. Would you kindly share the measured mortality at 600 ppm for CCCCCCCCCCC1OC(OC)C=C(CN2CCCCC2)C1=O (configuration not stated) ?
A. 95

Q. Would you kindly share the measured mortality at 600 ppm for COC1C=C(CN2CCCCC2)C(=O)C(c2ccccc2)O1 (configuration not stated) ?
A. 30

Q. Would you kindly share the measured mortality at 600 ppm for CCCCCCCCCCCCC1OC(OC)C=C(CN2CCCCC2)C1=O (configuration not stated) ?
A. 90

Q. Would you kindly share the measured mortality at 600 ppm for COC1C=C(CN2CCCCC2)C(=O)CO1 (configuration not stated) ?
A. 70

Q. Would you kindly share the measured mortality at 600 ppm for COC1C=C(CN2CCCC2)C(=O)C(C2CCCCC2)O1 (configuration not stated) ?
A. 68

Q. Would you kindly share the measured mortality at 600 ppm for CCCCCCC1OC(OC)C=C(CN2CCCCC2C)C1=O (configuration not stated) ?
A. 90

Q. Would you kindly share the measured mortality at 600 ppm for COC1C=C(CN2CCC(C)CC2)C(=O)C(C2CCCCC2)O1 (configuration not stated) ?
A. 100

----------
- Tested on: Tetranychus urticae
- methodDescription: Miticidal activity against Tetranychus urticae (two-spotted spider mite) in kidney beans assessed as mortality under greenhouse at 600 ppm at 25 +/- 2 degC measured after 48 hr of spray
- Format: functional
Assign mortality at 600 ppm to each entry below.
Quick note: give the figure in %, leave out the unit.

Q. Could you share what mortality at 600 ppm was measured for COC1C=C(CN2CCCCC2)C(=O)C(C2CCCCC2)O1 (configuration not stated) , tested on Tetranychus urticae?
A. 100

Q. Could you share what mortality at 600 ppm was measured for CCCCN(CCCC)CC1=CC(OC)OC(C2CCCCC2)C1=O (configuration not stated) , tested on Tetranychus urticae?
A. 70

Q. Could you share what mortality at 600 ppm was measured for CCCC1OC(OC)C=C(CN2CCCCC2)C1=O (configuration not stated) , tested on Tetranychus urticae?
A. 90

Q. Could you share what mortality at 600 ppm was measured for CCCCCCC1OC(OC)C=C(CN2CCOCC2)C1=O (configuration not stated) , tested on Tetranychus urticae?
A. 90

Q. Could you share what mortality at 600 ppm was measured for CCCCCCC1OC(OC)C=C(CN(CC)CC)C1=O (configuration not stated) , tested on Tetranychus urticae?
A. 60

Q. Could you share what mortality at 600 ppm was measured for CCN(CC)CC1=CC(OC)OC(C2CCCCC2)C1=O (configuration not stated) , tested on Tetranychus urticae?
A. 60

Q. Could you share what mortality at 600 ppm was measured for COC1C=C(CN2CCCC(C)C2)C(=O)C(C2CCCCC2)O1 (configuration not stated) , tested on Tetranychus urticae?
A. 100

Q. Could you share what mortality at 600 ppm was measured for CCCCCCCCC1OC(OC)C=C(CN2CCCCC2)C1=O (configuration not stated) , tested on Tetranychus urticae?
A. 100

Q. Could you share what mortality at 600 ppm was measured for CCCCC1OC(OC)C=C(CN2CCCCC2)C1=O (configuration not stated) , tested on Tetranychus urticae?
A. 90

Q. Could you share what mortality at 600 ppm was measured for CCCCCCC1OC(OC)C=C(CN2CCCC(C)C2)C1=O (configuration not stated) , tested on Tetranychus urticae?
A. 100

Q. Could you share what mortality at 600 ppm was measured for CCCCCCC1OC(OC)C=C(CN(CCCC)CCCC)C1=O (configuration not stated) , tested on Tetranychus urticae?
A. 75

Q. Could you share what mortality at 600 ppm was measured for COC1C=C(CN2CCCCC2C)C(=O)C(C2CCCCC2)O1 (configuration not stated) , tested on Tetranychus urticae?
A. 80
